experimental_target: human PDE2A1 (Homo sapiens (Human))
Sequence (O00408 other isoform, or with tags, fused parts or gaps): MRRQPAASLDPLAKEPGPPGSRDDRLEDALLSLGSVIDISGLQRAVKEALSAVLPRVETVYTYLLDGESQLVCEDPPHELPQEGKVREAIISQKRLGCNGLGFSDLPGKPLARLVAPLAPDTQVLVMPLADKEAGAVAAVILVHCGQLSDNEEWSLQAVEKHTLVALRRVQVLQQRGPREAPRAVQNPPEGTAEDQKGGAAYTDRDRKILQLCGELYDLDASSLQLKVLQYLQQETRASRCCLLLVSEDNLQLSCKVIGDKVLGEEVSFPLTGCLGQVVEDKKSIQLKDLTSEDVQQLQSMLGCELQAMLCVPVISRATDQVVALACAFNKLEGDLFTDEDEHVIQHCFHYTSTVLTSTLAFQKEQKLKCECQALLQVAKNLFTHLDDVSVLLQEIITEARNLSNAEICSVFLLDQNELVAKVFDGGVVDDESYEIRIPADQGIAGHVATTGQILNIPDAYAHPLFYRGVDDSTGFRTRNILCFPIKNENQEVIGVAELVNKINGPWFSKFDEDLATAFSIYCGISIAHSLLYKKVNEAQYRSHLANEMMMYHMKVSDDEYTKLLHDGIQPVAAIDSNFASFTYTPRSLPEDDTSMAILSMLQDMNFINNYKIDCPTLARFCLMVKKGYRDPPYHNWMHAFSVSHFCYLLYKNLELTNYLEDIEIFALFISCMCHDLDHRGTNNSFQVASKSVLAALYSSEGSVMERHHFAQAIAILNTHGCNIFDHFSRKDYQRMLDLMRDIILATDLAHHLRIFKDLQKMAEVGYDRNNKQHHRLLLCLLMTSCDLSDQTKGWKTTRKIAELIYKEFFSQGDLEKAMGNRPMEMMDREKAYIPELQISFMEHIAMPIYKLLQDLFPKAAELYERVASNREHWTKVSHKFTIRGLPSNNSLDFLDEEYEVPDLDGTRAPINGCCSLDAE
test_protocol: IMAP FP PDE selectivity panel, human PDE2A1
Assay type: biochemical
test_context: Human PDE2, Lab A; read-out: Human PDE2 Ki (nM) - Lab A
Description: Selectivity for PDE2, as compared to other PDE families, was assessed using the IMAP® technology. Human PDE 10A2 enzyme was prepared from cytosolic fractions of transiently transfected HEK cells. […] Assays for PDE 1 through 11 were performed in parallel at room temperature in 384-well microtiter plates with an incubation volume of 20.2 μL. […] The intrinsic PDE2 inhibitory activity of a compound which may be used in accordance with the present invention may be determined by these assays.
Form field: Ki (one value per entry).
readout: Ki (nM)

INSERT INTO results (smiles_representation, assay_value) VALUES
  ('C[C@@H](NC(=O)c1cc(=O)[nH]c(C2CC2)n1)c1ccc2ccccc2c1', 20),
  ('C[C@@H](NC(=O)c1cc(=O)[nH]c(C2CC2)n1)c1ccc(CC(F)(F)F)cc1', 14),
  ('Cc1nc(C(=O)N[C@H](C)c2ccc(OC(F)F)cc2)cc(=O)[nH]1', 76),
  ('C[C@@H](NC(=O)c1cc(=O)[nH]c(-c2ccc(F)c(F)c2)n1)c1ccc(C(F)(F)F)cc1', 144),
  ('O=C(N[C@@H](c1ccc(OC(F)(F)F)c(F)c1)C1CC1)c1cc(=O)[nH]c(C2CC2)n1', 2.6),
  ('Cc1nc(C(=O)N[C@@H](c2ccc(C(F)(F)F)cc2)C(C)C)cc(=O)[nH]1', 7.1),
  ('C[C@@H](NC(=O)c1cc(=O)[nH]c(-c2ccccc2)n1)c1ccc(SC(F)(F)F)cc1', 1.5),
  ('COCc1nc(C(=O)N[C@@H](c2ccc(SC(F)(F)F)cc2)C(C)C)cc(=O)[nH]1', 4.2),
  ('O=C(NC1(c2ccc(OC(F)(F)F)cc2)CCC1)c1cc(=O)[nH]c(-c2ncccn2)n1', 540),
  ('C[C@@H](NC(=O)c1cc(=O)[nH]c(-c2ccccc2)n1)c1ccc(OC(F)(F)F)c(F)c1', 1.5),
  ('O=C(N[C@@H](c1ccc(C(F)(F)F)c(F)c1)C1CC1)c1cc(=O)[nH]c(-c2ccccc2)n1', 4.5),
  ('O=C(NC1(c2ccc(C(F)(F)F)cc2)CC1)c1cc(=O)[nH]c(-c2ccccc2)n1', 3.8),
  ('Cc1nc(C(=O)N[C@H](C)c2ccc(C(F)(F)F)c(Cl)c2)cc(=O)[nH]1', 32),
  ('CC(C)(NC(=O)c1cc(=O)[nH]c(-c2ccccc2)n1)c1ccc(C(F)(F)F)c(F)c1', 9),
  ('Cc1nc(C(=O)N[C@H](C)c2ccc(-c3cccc(F)c3)cc2)cc(=O)[nH]1', 50);
